Target: full-length human PKCι (Homo sapiens, UniProt P41743)
Construct: Recombinant, full-length human PKCι expressed in Sf21 insect cells is also commercially available; purchased; host or cells: Sf21 insect cells
Sequence (P41743 whole entry): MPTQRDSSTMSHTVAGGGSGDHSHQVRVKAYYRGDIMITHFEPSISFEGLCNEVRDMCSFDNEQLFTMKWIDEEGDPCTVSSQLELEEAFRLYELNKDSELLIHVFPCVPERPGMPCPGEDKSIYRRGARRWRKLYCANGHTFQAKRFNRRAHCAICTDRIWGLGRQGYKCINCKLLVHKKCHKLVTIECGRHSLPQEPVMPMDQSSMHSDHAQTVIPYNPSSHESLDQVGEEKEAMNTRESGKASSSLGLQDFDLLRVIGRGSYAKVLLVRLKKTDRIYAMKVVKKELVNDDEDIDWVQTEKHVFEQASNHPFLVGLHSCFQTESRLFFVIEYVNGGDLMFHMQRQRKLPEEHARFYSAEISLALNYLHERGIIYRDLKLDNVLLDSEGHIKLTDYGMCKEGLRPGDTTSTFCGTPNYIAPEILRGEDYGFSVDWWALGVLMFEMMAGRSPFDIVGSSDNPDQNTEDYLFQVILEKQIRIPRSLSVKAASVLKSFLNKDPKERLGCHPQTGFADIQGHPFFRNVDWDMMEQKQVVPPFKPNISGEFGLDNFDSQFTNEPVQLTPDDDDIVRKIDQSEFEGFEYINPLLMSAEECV
Experiment: PKCι IC50 IMAP fluorescence polarisation assay, full-length enzyme
Format: biochemical
Details: full length PKCi at 15 μM ATP; read-out: IC50 in IMAP assay against full length PKCi
Procedure: Assays are based on the ability of PKCι to phosphorylate a commercially available peptide substrate in vitro. […] Recombinant, full-length human PKCι expressed in Sf21 insect cells is also commercially available. Recombinant, kinase-domain human PKCι is expressed and purified in-house. The procedure below explains how dose response curves for inhibitors of PKCι are obtained. Compounds to be tested are dissolved in 100% DMSO. […]
pIC50: −log10 of the molar value.
For each entry below, report its pIC50 value.

Lab note: measured pIC50 of NC(=O)CN1CC[C@@H](Nc2nc(-c3ccnc(Nc4ccccc4)c3)nc3ccsc23)C1 was 4.40 to 5.00

Lab note: measured pIC50 of c1cc(-c2nc(N[C@@H]3CCNC3)c3sccc3n2)cc(Nc2ccc(N3CCOCC3)cn2)n1 was 6.00 to 7.00

Lab note: measured pIC50 of Fc1cnccc1-c1nc(N[C@@H]2CCNC2)c2scc(Nc3ccccn3)c2n1 was 4.40 to 5.00

Lab note: measured pIC50 of Cc1cc(-c2csc3c(NC[C@@H](N)Cc4ccccc4)nc(-c4ccncc4)nc23)no1 was 6.00 to 7.00

Values compiled from patent US10183950B2.
